# target.entity: UGT1A9 (Homo sapiens)
# assay.name: Inhibition of raloxifene glucuronidation by recombinant UGT1A9 Supersomes
# conditions.used: second line (G2, metabolite not given); inhibitor 25 μM; raloxifene 50 μM, 250 μg/ml Supersomes, 1 mM UDPGA, 15 min
Measured Inhibition of raloxifene glucuronidation, UGT1A9, second line per inhibitor (G2) by item

Below, 3 compounds whose answers are already recorded.
{"columns": ["compound", "target.entity", "reported.measurement"],
 "data": [
  ["O=C(OC[C@H]1O[C@@H](OC(=O)c2cc(O)c(O)c(OC(=O)c3cc(O)c(O)c(O)c3)c2)[C@H](OC(=O)c2cc(O)c(O)c(OC(=O)c3cc(O)c(O)c(O)c3)c2)[C@@H](OC(=O)c2cc(O)c(O)c(OC(=O)c3cc(O)c(O)c(O)c3)c2)[C@@H]1OC(=O)c1cc(O)c(O)c(OC(=O)c2cc(O)c(O)c(O)c2)c1)c1cc(O)c(O)c(OC(=O)c2cc(O)c(O)c(O)c2)c1", "UGT1A9 (Homo sapiens)", "19 (3)"],
  ["O=c1c(O)c(-c2ccc(O)c(O)c2)oc2cc(O)cc(O)c12", "UGT1A9 (Homo sapiens)", "39 (2)"],
  ["O=C(O[C@@H]1Cc2c(O)cc(O)cc2O[C@H]1c1cc(O)c(O)c(O)c1)c1cc(O)c(O)c(O)c1 [Gallocatechin gallate]", "UGT1A9 (Homo sapiens)", "63 (4)"]
]}

Per the records, this compound ( O=C(O[C@@H]1Cc2c(O)cc(O)cc2O[C@@H]1c1cc(O)c(O)c(O)c1)c1cc(O)c(O)c(O)c1 [Epigallocatechin gallate] ) has Inhibition of raloxifene glucuronidation, UGT1A9, second line per inhibitor (G2) equal to 50 (1)

---

# target.entity: UGT enzymes of human liver microsomes (Homo sapiens)
# Construct: residual metabolism (percentage of control), zidovudine glucuronidation; other: liver lot 062101; residual metabolism (percentage of control), zidovudine glucuronidation; residual metabolism (percentage of control)
# assay.name: Inhibition of zidovudine glucuronidation in human liver microsomes
# Type: biochemical
# conditions.used: liver lot 062101; inhibitor 500 μM
experimental.readout: residual metabolism (percentage of control), zidovudine glucuronidation

{"columns": ["compound", "reported.measurement"],
 "data": [
  ["CCCCC/C=C\\C/C=C\\CCCCCCCC(=O)O [Linoleic acid]", "68 (5) %"],
  ["O=C(O)C=Cc1ccccc1 [Cinnamic acid]", "97 (3) %"],
  ["CC(=O)OC1CC(C)CCC1C(C)C (centres unmarked) [Menthyl acetate]", "35 (1) %"],
  ["COc1ccc2c(c1)c(CC(=O)O)c(C)n2C(=O)c1ccc(Cl)cc1 [Indomethacin, reference compound]", "68 (7) %"]
]}

Record CCCCCCCCC(=O)NCc1ccc(O)c(OC)c1 [N-Vanillylnonanamide] , field residual metabolism (percentage of control), zidovudine glucuronidation: 67 (1) %

---

# Test system: UGT enzymes of human liver microsomes
# assay.name: Inhibition of raloxifene glucuronidation (G1, G2) in human liver microsomes
# Type: biochemical
# conditions.used: liver lot 083000; inhibitor 50 μM
experimental.readout: % of control metabolism, raloxifene G1

Completed entries (count: 3):
{"columns": ["molecule", "experimental.readout", "reported.measurement"],
 "data": [
  ["O=c1c(O)c(-c2ccc(O)c(O)c2)oc2cc(O)cc(O)c12", "% of control metabolism, raloxifene G1", "8 (1) %"],
  ["O=C(O)c1cc(-c2ccc(F)cc2F)ccc1O [Diflunisal, reference compound]", "% of control metabolism, raloxifene G1", "43 (1) %"],
  ["O=C(O[C@@H]1Cc2c(O)cc(O)cc2O[C@H]1c1cc(O)c(O)c(O)c1)c1cc(O)c(O)c(O)c1 [Gallocatechin gallate]", "% of control metabolism, raloxifene G1", "45 (2) %"]
]}

Response field % of control metabolism, raloxifene G1 (UGT enzymes of human liver microsomes) for item O=C(O[C@@H]1Cc2c(O)cc(O)cc2O[C@@H]1c1cc(O)c(O)c(O)c1)c1cc(O)c(O)c(O)c1 [Epigallocatechin gallate] : 46 (2) %

// molecule CCCCCCCCOC(=O)c1cc(O)c(O)c(O)c1 [Octyl gallate] , assay UGT enzymes of human liver microsomes, % of control metabolism, raloxifene G1 value: 37 (2) %

% of control metabolism, raloxifene G1 value, target or system UGT enzymes of human liver microsomes, for O=C(O[C@@H]1Cc2c(O)cc(O)cc2O[C@@H]1c1ccc(O)c(O)c1)c1cc(O)c(O)c(O)c1 [Epicatechin gallate] : 37 (3) %

---

# target.entity: UGT1A1 (Homo sapiens)
# assay.name: in vitro
# conditions.used: pH 7.5, Inhibition of raloxifene glucuronidation, G2, UGT1A1, G2, inhibitor 50 μM, raloxifene 50 μM, 250 μg/ml Supersomes, 1 mM UDPGA, 15 min
experimental.readout: activity at 15 min, 50 µM (%)
Please give a number only; it is taken to be in %.

Observed activity at 15 min, 50 µM on UGT1A1 (Homo sapiens), entry "C=CCc1ccc(O)c(OC)c1" , equals 79

---

# target.entity: UGT1A1 (Homo sapiens, UniProt P22309)
# Sequence (P22309 26-533): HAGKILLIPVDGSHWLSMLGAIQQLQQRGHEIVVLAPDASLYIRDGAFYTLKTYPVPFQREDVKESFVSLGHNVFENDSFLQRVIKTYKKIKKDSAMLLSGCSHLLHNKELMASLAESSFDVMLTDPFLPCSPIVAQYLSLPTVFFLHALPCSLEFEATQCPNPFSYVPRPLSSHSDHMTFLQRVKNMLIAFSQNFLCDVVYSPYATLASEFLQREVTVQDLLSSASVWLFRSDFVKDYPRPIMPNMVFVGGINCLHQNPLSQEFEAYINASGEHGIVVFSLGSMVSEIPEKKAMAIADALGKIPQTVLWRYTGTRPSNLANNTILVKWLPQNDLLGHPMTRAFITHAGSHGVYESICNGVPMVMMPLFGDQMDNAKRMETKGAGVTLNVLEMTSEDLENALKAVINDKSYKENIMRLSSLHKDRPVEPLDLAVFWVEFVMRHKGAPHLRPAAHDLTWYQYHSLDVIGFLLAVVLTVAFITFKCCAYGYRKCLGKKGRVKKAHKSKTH
# assay.name: in vitro
# conditions.used: pH 7.5, % of control metabolism, raloxifene G1, UGT1A1, inhibitor 50 μM
experimental.readout: activity at 15 min, 50 µM (%)
Reply numerically in %, unit not repeated.

According to the records, this compound C=CCc1ccc(O)c(OC)c1 [Eugenol] displays activity at 15 min, 50 µM of 85

---

# target.entity: UGT1A9 (Homo sapiens, UniProt O60656)
# Sequence (O60656 26-530): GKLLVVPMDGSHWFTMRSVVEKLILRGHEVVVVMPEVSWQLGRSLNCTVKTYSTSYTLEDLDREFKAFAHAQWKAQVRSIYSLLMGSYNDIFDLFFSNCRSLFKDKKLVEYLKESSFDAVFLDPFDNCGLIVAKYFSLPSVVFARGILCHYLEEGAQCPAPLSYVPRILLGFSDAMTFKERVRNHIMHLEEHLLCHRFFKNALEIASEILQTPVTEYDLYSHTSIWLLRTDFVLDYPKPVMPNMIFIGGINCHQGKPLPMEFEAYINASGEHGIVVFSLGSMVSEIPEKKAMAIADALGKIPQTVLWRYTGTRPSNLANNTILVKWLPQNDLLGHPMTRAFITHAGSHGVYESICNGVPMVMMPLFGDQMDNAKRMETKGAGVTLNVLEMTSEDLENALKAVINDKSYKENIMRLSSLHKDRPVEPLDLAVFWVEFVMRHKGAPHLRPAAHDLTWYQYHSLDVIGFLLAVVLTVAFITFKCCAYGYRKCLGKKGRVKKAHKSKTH
# assay.name: in vitro
# conditions.used: pH 7.5, % of control metabolism, raloxifene G2
# activity at 15 min, 25 µM per entry
Reply numerically in %, unit not repeated.

{"columns": ["compound", "reported.measurement"],
 "data": [
  ["COc1cc(C2Oc3cc([C@H]4Oc5cc(O)cc(O)c5C(=O)[C@@H]4O)ccc3OC2CO)ccc1O (some centres unmarked)", 47]
]}

Next compound, please.
The value of activity at 15 min, 25 µM recorded for "C=CCc1ccc(O)c(OC)c1" when tested on UGT1A9 (Homo sapiens, UniProt O60656) reads 51

---

# Test system: UGT enzymes of human liver microsomes
# Construct: percentage of control metabolism, 7-HFC glucuronidation; percentage of control metabolism, 7-HFC glucuronidation
# assay.name: Inhibition of 7-HFC glucuronidation in human liver microsomes
# Format: biochemical
# conditions.used: inhibitor 500 μM; 7-HFC 50 μM, human liver microsomes 100 μg/ml, 15 min
Readings of % of control metabolism (SD, n = 3), 7-HFC glucuronidation for the listed compounds

{"columns": ["compound", "target.entity", "reported.measurement"],
 "data": [
  ["C#C[C@]1(O)CC[C@H]2[C@@H]3CCc4cc(O)ccc4[C@H]3CC[C@@]21C [17-α-Ethinylestradiol, 17-α-ethinylestradiol, reference compound]", "UGT enzymes of human liver microsomes", "72 (1) %"],
  ["CCCCCCCCCCCCCCCC(=O)O", "UGT enzymes of human liver microsomes", "104 (2) %"],
  ["CCCCCCCCCCCCCCCC(=O)OC/C=C(C)/C=C/C=C(C)/C=C/C1=C(C)CCCC1(C)C [Retinol palmitate]", "UGT enzymes of human liver microsomes", "81 (4) %"],
  ["CC(C)=CCC/C(C)=C/CO", "UGT enzymes of human liver microsomes", "75 (0) %"]
]}

Entry under test: "O=C1C[C@@H](c2ccc(O)cc2)Oc2cc(O)cc(O)c21" . Its % of control metabolism (SD, n = 3), 7-HFC glucuronidation was 63 (1) %

---

# target.entity: UGT enzymes of human liver microsomes (Homo sapiens, UniProt P16662)
# Construct: residual metabolism (percentage of control), zidovudine glucuronidation; other: liver lot 062101; residual metabolism (percentage of control), zidovudine glucuronidation; residual metabolism (percentage of control)
# Sequence (P16662 whole entry): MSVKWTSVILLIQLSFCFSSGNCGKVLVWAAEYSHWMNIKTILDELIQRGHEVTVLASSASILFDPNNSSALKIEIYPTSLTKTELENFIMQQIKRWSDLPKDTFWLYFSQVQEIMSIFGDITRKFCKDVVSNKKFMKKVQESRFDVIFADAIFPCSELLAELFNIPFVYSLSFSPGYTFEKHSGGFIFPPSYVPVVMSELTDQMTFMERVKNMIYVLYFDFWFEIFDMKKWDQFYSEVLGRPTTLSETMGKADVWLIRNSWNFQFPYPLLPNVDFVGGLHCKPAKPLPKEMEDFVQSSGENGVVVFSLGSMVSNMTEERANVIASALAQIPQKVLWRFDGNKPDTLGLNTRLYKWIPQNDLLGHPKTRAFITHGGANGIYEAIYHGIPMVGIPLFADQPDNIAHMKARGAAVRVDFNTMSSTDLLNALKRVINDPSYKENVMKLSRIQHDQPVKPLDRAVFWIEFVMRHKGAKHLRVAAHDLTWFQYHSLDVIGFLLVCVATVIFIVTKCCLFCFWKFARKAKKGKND
# assay.name: Inhibition of zidovudine glucuronidation in human liver microsomes
# Format: biochemical
# conditions.used: liver lot 062101; inhibitor 200 μM
# Method: Compounds were eluted using a binary solvent gradient system where solvent A was dilute phosphoric acid (pH 3) and solvent B was acetonitrile. Standardized incubations utilized 500 μM zidovudine substrate, 1 mg/ml microsomal protein, 5 mM UDPGA and a 30 min incubation time. […] Int.
experimental.readout: residual metabolism (percentage of control), zidovudine glucuronidation

{"columns": ["compound", "reported.measurement"],
 "data": [
  ["CC/C(=C(/CC)c1ccc(O)cc1)c1ccc(O)cc1 [Diethylstilbestrol, reference compound]", "15 (1) %"]
]}

Entry C#C[C@]1(O)CC[C@H]2[C@@H]3CCc4cc(O)ccc4[C@H]3CC[C@@]21C [17-α-Ethinylestradiol, 17-α-ethinylestradiol, reference compound] ; residual metabolism (percentage of control), zidovudine glucuronidation = 24 (1) %

Entry "O=C(OC[C@H]1O[C@@H](OC(=O)c2cc(O)c(O)c(OC(=O)c3cc(O)c(O)c(O)c3)c2)[C@H](OC(=O)c2cc(O)c(O)c(OC(=O)c3cc(O)c(O)c(O)c3)c2)[C@@H](OC(=O)c2cc(O)c(O)c(OC(=O)c3cc(O)c(O)c(O)c3)c2)[C@@H]1OC(=O)c1cc(O)c(O)c(OC(=O)c2cc(O)c(O)c(O)c2)c1)c1cc(O)c(O)c(OC(=O)c2cc(O)c(O)c(O)c2)c1" — recorded residual metabolism (percentage of control), zidovudine glucuronidation = 20 (2) %

Reported residual metabolism (percentage of control), zidovudine glucuronidation for CC(=O)OC1CC(C)CCC1C(C)C (stereo not shown) [Menthyl acetate] was 64 (2) %

Value of residual metabolism (percentage of control), zidovudine glucuronidation reported for the compound O=C(O[C@@H]1Cc2c(O)cc(O)cc2O[C@@H]1c1cc(O)c(O)c(O)c1)c1cc(O)c(O)c(O)c1 [Epigallocatechin gallate] is 39 (2) %

Entry "O=c1c(O)c(-c2ccc(O)c(O)c2)oc2cc(O)cc(O)c12" — recorded residual metabolism (percentage of control), zidovudine glucuronidation = 64 (4) %

Values were extracted from patent US20030215462A1.
